Give binding signal for every item shown.
Biological target: MYC (p64);MAX (p21), in MYC:MAX (human;human, UniProt P01106-1;P61244-2 1-439;1-151, |)
Sequence (P01106 16-454, chain 1 of 2): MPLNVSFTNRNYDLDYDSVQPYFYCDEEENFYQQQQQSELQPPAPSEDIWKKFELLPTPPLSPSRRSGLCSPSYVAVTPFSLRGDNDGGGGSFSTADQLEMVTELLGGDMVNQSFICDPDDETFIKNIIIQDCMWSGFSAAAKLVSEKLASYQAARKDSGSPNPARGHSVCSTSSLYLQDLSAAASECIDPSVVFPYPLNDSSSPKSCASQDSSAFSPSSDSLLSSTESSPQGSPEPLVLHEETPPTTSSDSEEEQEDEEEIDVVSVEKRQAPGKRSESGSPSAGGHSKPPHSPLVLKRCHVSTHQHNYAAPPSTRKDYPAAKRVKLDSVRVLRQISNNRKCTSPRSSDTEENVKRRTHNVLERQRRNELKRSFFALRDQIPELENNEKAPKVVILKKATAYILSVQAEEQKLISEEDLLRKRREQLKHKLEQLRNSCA
Sequence (P61244 other isoform, or with tags, fused parts or gaps |, chain 2 of 2): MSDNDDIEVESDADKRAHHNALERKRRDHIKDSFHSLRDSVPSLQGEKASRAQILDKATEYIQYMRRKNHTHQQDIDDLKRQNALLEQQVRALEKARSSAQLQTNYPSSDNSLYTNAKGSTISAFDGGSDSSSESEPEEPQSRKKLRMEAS
Test: protein-binding microarray (anti-MAX antibody); PBM: 15 mM Tris-HCl pH 7.5, 100 mM KCl, 0.075% NP40, 7.5 mM beta-mercaptoethanol, 375 ng/ul BSA, 8 ng/ul poly(dA-dT):(dA-dT), 550 ng complex, 60 min, room tempe; high values mean tight binding
Settings: protein: recombinant;recombinant; tags: 6xHis;6xHis; copies: 1;1; label: 3' end of printed strand (linker) attached to glass slide; dsDNA, one strand shown
Over roughly 5,000 sequences, “log2 normalized fluorescence” has its median near 0.089; the highest 2% begin near 0.81. The full list was thinned out, with the highest values kept by preference.

>  <MONOMER_SEQUENCE>
CCGGCTGCATCGTGGTATTAATAGCTAAGATTACTATATCGACG

>  <READOUT_KIND>
binding signal

>  <MEASURED>
0.636 log2 normalized fluorescence

$$$$
>  <MONOMER_SEQUENCE>
CCGGCATTCACGTGGTATTAATAGCTAAGATTACTATATCGACG

>  <READOUT_KIND>
binding signal

>  <MEASURED>
0.958 log2 normalized fluorescence

$$$$
>  <MONOMER_SEQUENCE>
CCGGCTGTCAAGTGGCATTAATAGCTAAGATTACTATATCGACG

>  <READOUT_KIND>
binding signal

>  <MEASURED>
0.1 log2 normalized fluorescence

$$$$
>  <MONOMER_SEQUENCE>
CCGGCTGAATCAGAGTATTAATAGCTAAGATTACTATATCGACG

>  <READOUT_KIND>
binding signal

>  <MEASURED>
0.0753 log2 normalized fluorescence

$$$$
>  <MONOMER_SEQUENCE>
CCGGCTGACACGCGCTATTAATAGCTAAGATTACTATATCGACG

>  <READOUT_KIND>
binding signal

>  <MEASURED>
0.811 log2 normalized fluorescence

$$$$
>  <MONOMER_SEQUENCE>
CCGGCTGTCACGTGGTATTAATAGCTAAGATTACTATATCGACG

>  <READOUT_KIND>
binding signal

>  <MEASURED>
0.706 log2 normalized fluorescence

$$$$

Please state, for each entry, its recorded binding signal.
1. CCGGCAGCCACGTTGTATTAATAGCTAAGATTACTATATCGACG
2. CCGGCTGACACGTGGCATTAATAGCTAAGATTACTATATCGACG
3. CCGGCTTTCACGTGGTATTAATAGCTAAGATTACTATATCGACG
4. CCGGCTGACGCGGAGTATTAATAGCTAAGATTACTATATCGACG
5. CCGGCTGACAGTTGGTATTAATAGCTAAGATTACTATATCGACG
6. CCGGCAGTCACGTGGTATTAATAGCTAAGATTACTATATCGACG
7. CCGGCGGACACGTGTGATTAATAGCTAAGATTACTATATCGACG
8. CCGGCTGAACTCGCGTATTAATAGCTAAGATTACTATATCGACG

Response given:
1: 0.643 log2 normalized fluorescence; 2: 0.835 log2 normalized fluorescence; 3: 0.847 log2 normalized fluorescence; 4: 0.127 log2 normalized fluorescence; 5: 0.112 log2 normalized fluorescence; 6: 0.893 log2 normalized fluorescence; 7: 0.779 log2 normalized fluorescence; 8: 0.276 log2 normalized fluorescence

Hi, could you look up binding signal for each item in my list?
1. CCGGCTGACACGTGGCCTTAATAGCTAAGATTACTATATCGACG
2. CCGGCTGAGCCAATGTATTAATAGCTAAGATTACTATATCGACG
3. CCGGCTGAAACGTGGTCTTAATAGCTAAGATTACTATATCGACG
4. CCGGCTGACACGTGCCTTTAATAGCTAAGATTACTATATCGACG
5. CCGGCTCACGATGGGGCTTAATAGCTAAGATTACTATATCGACG
6. CCGGCGGTCACGTGGTATTAATAGCTAAGATTACTATATCGACG
7. CCGGCTCAGACGTGGTATTAATAGCTAAGATTACTATATCGACG
8. CCGGCTGACGATCAGTATTAATAGCTAAGATTACTATATCGACG

Response given:
0.897 log2 normalized fluorescence
0.00395 log2 normalized fluorescence
0.74 log2 normalized fluorescence
0.722 log2 normalized fluorescence
0.398 log2 normalized fluorescence
0.805 log2 normalized fluorescence
0.391 log2 normalized fluorescence
-0.0317 log2 normalized fluorescence
